List of pIC50 values.
target: Protein farnesyltransferase (Bos taurus, UniProt P29702+P49355); experiment: Inhibition of bovine farnesyltransferase
Scale: negative log10 of molar concentration, which is what pIC50 denotes.

Worked cases, pIC50 given:
### Prompt Requested field: pIC50. Item: `N#Cc1ccc(Cn2cncc2COCc2ccc(C#N)cc2-c2ccc(OC(F)(F)F)cc2)cc1`
### Response 9.19

### Prompt Requested field: pIC50. Item: `CC(=O)c1ccc(-c2cc(C#N)ccc2COCc2cncn2Cc2ccc(C#N)cc2)cc1`
### Response 8.89

### Prompt Requested field: pIC50. Item: `CCOc1cccc(-c2cc(C#N)ccc2COCc2cncn2Cc2ccc(C#N)nc2)c1`
### Response 9.24

### Prompt Requested field: pIC50. Item: `N#Cc1ccc(COCc2cncn2Cc2ccc(C#N)cc2-c2cccc3ccccc23)cc1`
### Response 9.02

### Prompt Requested field: pIC50. Item: `N#Cc1ccc(Cn2cncc2CNCc2ccc(C#N)c(-c3cccc4ccccc34)c2)cc1`
### Response 9.19

Continuing:
### Prompt Requested field: pIC50. Item: `N#Cc1ccc(Cn2cncc2COCc2ccc(C#N)cc2-c2cccc(Cl)c2)nc1`
### Response 8.77

### Prompt Requested field: pIC50. Item: `CCOc1ccc(-c2cc(C#N)ccc2COCc2cncn2Cc2ccc(C#N)cc2)cc1`
### Response 8.92

### Prompt Requested field: pIC50. Item: `N#Cc1ccc(Cn2cncc2COCc2ccc(C#N)cc2-c2ccc3ccccc3c2)cc1`
### Response 9.04

###

molecular target: Geranylgeranyl transferase type I (Bos taurus, UniProt P29702+Q5EAD5); test: Inhibition of bovine Geranylgeranyltransferase
pIC50: −log10 of the molar value.
List of pIC50 values.

Worked cases, pIC50 given:
### Prompt Requested field: pIC50. Item: `CC(=O)c1ccc(-c2cc(C#N)ccc2COCc2cncn2Cc2ccc(C#N)cc2)cc1`
### Response < 5.00

### Prompt Requested field: pIC50. Item: `N#Cc1ccc(COCc2cncn2Cc2ccc(Cl)cc2)c(-c2ccc3c(c2)OCO3)c1`
### Response < 5.00

Continuing:
### Prompt Requested field: pIC50. Item: `COc1cccc(-c2cc(C#N)ccc2COCc2cncn2Cc2ccc(C#N)nc2)c1`
### Response < 5.00
